This listing pairs compounds with measured melting point.

[
  {
    "Compound": "CCNCC(=O)Nc1c(C)cccc1C",
    "melting point": "45 to 47 °C"
  },
  {
    "Compound": "O=S(=O)(F)CC1CCOCC1",
    "melting point": "53 to 55 °C"
  },
  {
    "Compound": "CC1CNCC(C)N1C(=O)OC(C)(C)C (stereo not drawn)",
    "melting point": "61 to 63 °C"
  },
  {
    "Compound": "O=C(Nc1cc(Cl)ccc1C(=O)O)c1cccs1",
    "melting point": "267 to 269 °C"
  },
  {
    "Compound": "COC(=O)c1c[nH][nH]c1=O",
    "melting point": "209 to 211 °C"
  },
  {
    "Compound": "CCCCCC(=O)Nc1ccc(C(=O)CCl)cc1",
    "melting point": "179 to 181 °C"
  },
  {
    "Compound": "Cc1cnn(-c2ccc(S(N)(=O)=O)cc2F)c1",
    "melting point": "189 to 191 °C"
  },
  {
    "Compound": "Cc1ccccc1-c1cc(N)n(CCO)n1",
    "melting point": "128 to 130 °C"
  },
  {
    "Compound": "Cc1nn(C)c(N)c1SC#N",
    "melting point": "176 to 178 °C"
  },
  {
    "Compound": "Cc1ccc(S(=O)(=O)Oc2cccnc2[N+](=O)[O-])cc1",
    "melting point": "83 to 85 °C"
  },
  {
    "Compound": "CC(C)Cc1ccc(C(=O)c2cccs2)cc1",
    "melting point": "112 to 114 °C"
  },
  {
    "Compound": "O=C(CCCc1ccc(Br)cc1)c1ccccc1",
    "melting point": "84 to 86 °C"
  },
  {
    "Compound": "Nc1nnc2ccccn12",
    "melting point": "229 to 231 °C"
  },
  {
    "Compound": "NNc1nc(-c2ccncc2)no1",
    "melting point": "189 to 191 °C"
  },
  {
    "Compound": "COc1ccc(Br)cc1CCC(=O)O",
    "melting point": "116 to 118 °C"
  },
  {
    "Compound": "ClCc1nc(Cl)c2cnn(-c3ccccc3)c2n1",
    "melting point": "112 to 114 °C"
  },
  {
    "Compound": "COc1ccc2c(CO)cc(=O)oc2c1",
    "melting point": "177 to 179 °C"
  },
  {
    "Compound": "O=C(NC1CCCCC1)OCC(F)(F)F",
    "melting point": "78 to 82 °C"
  },
  {
    "Compound": "COC(=O)c1n[nH]c2ccccc12",
    "melting point": "159 to 161 °C"
  },
  {
    "Compound": "CC(C)C(=O)Nc1cccc(F)c1C(=O)O",
    "melting point": "128 to 130 °C"
  },
  {
    "Compound": "NNc1ncc(Cl)cc1Cl",
    "melting point": "179 to 181 °C"
  },
  {
    "Compound": "Nc1ccc2c(c1)C(=O)NC2",
    "melting point": "237 to 239 °C"
  },
  {
    "Compound": "O=C(O)CCS(=O)(=O)c1ccc2c(c1)OCCCO2",
    "melting point": "109 to 111 °C"
  },
  {
    "Compound": "c1cnn(CC2CCNCC2)c1",
    "melting point": "45 to 47 °C"
  },
  {
    "Compound": "Cc1ccc(OCC2CCCO2)c(S(=O)(=O)Cl)c1 (stereo not drawn)",
    "melting point": "76 to 78 °C"
  },
  {
    "Compound": "COc1ccc(C(=O)c2ccc(Cl)cc2)cc1C",
    "melting point": "121 to 123 °C"
  },
  {
    "Compound": "O=[N+]([O-])c1ccc(Cl)cc1S(=O)(=O)Cl",
    "melting point": "67 to 69 °C"
  },
  {
    "Compound": "C=CCc1cc(C(=O)OC)cc(OC)c1O",
    "melting point": "76 to 78 °C"
  }
]

----------
# reported melting point; entries follow

[
  {
    "Compound": "O=S(=O)(Cl)c1cc(Br)ccc1Cl",
    "melting point": "64 to 66 °C"
  },
  {
    "Compound": "O=C(O)CN1CCCOC1=O",
    "melting point": "172 to 174 °C"
  },
  {
    "Compound": "NNc1ccncc1Cl",
    "melting point": "158 to 160 °C"
  },
  {
    "Compound": "O=C(O)Cc1csc(-c2cccs2)n1",
    "melting point": "97 to 99 °C"
  },
  {
    "Compound": "CCCCN1Cc2ccc(N)cc2C1",
    "melting point": "62 to 64 °C"
  },
  {
    "Compound": "COc1n[nH]c(N)c1C#N",
    "melting point": "179 to 181 °C"
  },
  {
    "Compound": "CC(NCc1ccc(F)cc1)C(=O)O (centres undefined)",
    "melting point": "283 to 285 °C"
  },
  {
    "Compound": "COc1ccc(C=NO)cc1",
    "melting point": "64 to 66 °C"
  },
  {
    "Compound": "NNc1nc2cc(Cl)ccc2s1",
    "melting point": "209 to 211 °C"
  },
  {
    "Compound": "CCCNC(=O)c1cccc(C(=O)O)c1",
    "melting point": "229 to 231 °C"
  },
  {
    "Compound": "NNC(=O)CN1CCCC1=O",
    "melting point": "99 to 101 °C"
  },
  {
    "Compound": "Cc1ccc(NCCC#N)cc1",
    "melting point": "110 to 112 °C"
  },
  {
    "Compound": "CCCCc1ccc2nc(N)sc2c1",
    "melting point": "95 to 101 °C"
  },
  {
    "Compound": "O=C(c1ccc(Br)cc1)C1CCOCC1",
    "melting point": "99 to 101 °C"
  },
  {
    "Compound": "O=[N+]([O-])c1ccc(COc2ccccc2)cc1",
    "melting point": "87 to 89 °C"
  },
  {
    "Compound": "Nc1cc([N+](=O)[O-])ccc1Nc1cccc(C(F)(F)F)c1",
    "melting point": "165 to 167 °C"
  },
  {
    "Compound": "Cc1nn2cc(CCCO)cnc2c1C",
    "melting point": "108 to 110 °C"
  },
  {
    "Compound": "COCCNc1ccc(C(F)(F)F)cn1",
    "melting point": "77 to 79 °C"
  },
  {
    "Compound": "Cc1ccc(CN(C)C(N)=O)cc1",
    "melting point": "146 to 148 °C"
  },
  {
    "Compound": "COc1ccc2c(-c3cccnc3)cc(S)nc2c1",
    "melting point": "269 to 271 °C"
  },
  {
    "Compound": "Cc1ccc2c(C3=CCNCC3)c[nH]c2c1",
    "melting point": "178 to 180 °C"
  },
  {
    "Compound": "CCc1nnc2cc(Cl)ncn12",
    "melting point": "108 to 110 °C"
  },
  {
    "Compound": "O=C(O)c1ccc(I)cc1Cl",
    "melting point": "159 to 161 °C"
  },
  {
    "Compound": "O=C(O)Cn1[nH]c(=O)ccc1=O",
    "melting point": "235 to 237 °C"
  },
  {
    "Compound": "CCS(=O)(=O)NCC(=O)O",
    "melting point": "85 to 87 °C"
  },
  {
    "Compound": "Cc1cc(Br)c2ccccc2c1N",
    "melting point": "79 to 81 °C"
  },
  {
    "Compound": "NC(=O)NCCCC(=O)O",
    "melting point": "171 to 173 °C"
  },
  {
    "Compound": "COc1ccc(C(=O)O)cc1S(=O)(=O)NC(C)C",
    "melting point": "194 to 197 °C"
  },
  {
    "Compound": "O=C(O)C1(c2cccc(Cl)c2)CCCC1",
    "melting point": "150 to 152 °C"
  },
  {
    "Compound": "O=C(O)c1c[nH]nc1-c1ccccc1Cl",
    "melting point": "255 to 257 °C"
  },
  {
    "Compound": "Oc1ccc2cccc(O)c2n1",
    "melting point": "293 to 295 °C"
  },
  {
    "Compound": "O=C(Nc1sccc1C(=O)O)c1ccc(Cl)cc1O",
    "melting point": "244 to 246 °C"
  },
  {
    "Compound": "NC(NO)=C1C=CC=NC1=O",
    "melting point": "176 to 178 °C"
  },
  {
    "Compound": "O=[N+]([O-])c1ccc(OCc2ccco2)nc1",
    "melting point": "87 to 89 °C"
  },
  {
    "Compound": "Cn1cc(Cl)cc1C(=O)O",
    "melting point": "129 to 131 °C"
  },
  {
    "Compound": "Nc1ccc(N2CCNC2=O)cc1",
    "melting point": "171 to 173 °C"
  },
  {
    "Compound": "O=C(O)CSc1ccc(F)cc1F",
    "melting point": "73 to 75 °C"
  },
  {
    "Compound": "O=C(O)C1(S(=O)(=O)c2ccc(Cl)cc2)CCCC1",
    "melting point": "83 to 85 °C"
  },
  {
    "Compound": "O=S(=O)(Cl)Cc1cc(-c2ccc(F)cc2)no1",
    "melting point": "108 to 110 °C"
  },
  {
    "Compound": "Nc1cnn(CC(=O)NC2CCCC2)c1",
    "melting point": "108 to 110 °C"
  },
  {
    "Compound": "CC(=Cc1cccc(Cl)c1)C(=O)O",
    "melting point": "99 to 101 °C"
  },
  {
    "Compound": "N#CCc1cnn(-c2ccccc2)c1",
    "melting point": "38 to 40 °C"
  },
  {
    "Compound": "CC(C)N1CCN(C2CCNCC2)CC1",
    "melting point": "49 to 51 °C"
  },
  {
    "Compound": "Nc1ccc(N)c(S(=O)(=O)Nc2ccccc2Cl)c1",
    "melting point": "213 to 215 °C"
  },
  {
    "Compound": "O=C(c1ccc(Br)cc1)c1cccnc1",
    "melting point": "124 to 126 °C"
  },
  {
    "Compound": "Cc1ccc(CN2CCSCC2)cc1N",
    "melting point": "136 to 138 °C"
  },
  {
    "Compound": "CC1(C(=O)O)CCCS1 (centres undefined)",
    "melting point": "38 to 40 °C"
  },
  {
    "Compound": "Cc1cc(O)nc(NN)n1",
    "melting point": "213 to 215 °C"
  },
  {
    "Compound": "NNC(=O)c1ccc(-n2cnnn2)cc1",
    "melting point": "228 to 230 °C"
  },
  {
    "Compound": "Cc1nn(C)c(C(F)(F)F)c1C(=O)O",
    "melting point": "213 to 215 °C"
  },
  {
    "Compound": "Cc1nn(-c2ccccc2F)c(C)c1N",
    "melting point": "59 to 61 °C"
  },
  {
    "Compound": "O=Cc1sc(N2CCCCC2)nc1Cl",
    "melting point": "89 to 91 °C"
  },
  {
    "Compound": "COc1c(C=O)c(C)nn1C",
    "melting point": "55 to 57 °C"
  },
  {
    "Compound": "OC(c1ccccc1)C1CCCCN1 (centres undefined)",
    "melting point": "136 to 138 °C"
  },
  {
    "Compound": "c1ccc2oc(-c3ccncc3)cc2c1",
    "melting point": "73 to 75 °C"
  },
  {
    "Compound": "CC(C)(C#N)S(=O)(=O)c1ccc(Br)cc1",
    "melting point": "118 to 120 °C"
  },
  {
    "Compound": "Nc1nc2ccc(OCC(F)(F)F)cc2s1",
    "melting point": "134 to 136 °C"
  },
  {
    "Compound": "CC(=O)N(C)Cc1ccc(C(=O)CCl)cc1",
    "melting point": "45 to 47 °C"
  },
  {
    "Compound": "COc1ccc2oc(C(C)=O)c(C)c2c1",
    "melting point": "96 to 98 °C"
  }
]
